Hello, the source for this data is PubChem BioAssay (NCI), in case you need it.

# assay_comment: NCI Yeast Anticancer Drug Screen. Data for the rad50 strain (AID 155);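 also: 0% = growth of vehicle-only cultures of the same strain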
# measurement_conditions: S. cerevisiae rad50 strain growth inhibition; at 50.0 µM; stronger effect = higher value
# Description: Growth inhibition of yeast strains with defined genetic alterations is measured as a screen for potential anti-cancer activity. Selected strains with alterations in DNA damage repair or cell cycle control were exposed to compounds and growth inhibition was measured relative to vehicle treated controls. The strain used in this assay is rad50
About 79,000 compounds went through this panel and 15% of them were active in at least one assay; those are over-represented in the sample as a whole.
readout: growth inhibition (%)
Dear colleague, please return just the value in %, with no unit written.

Field: example entries. Status: answers known.
>  <compound>
NNc1c(F)c(F)c(-c2c(F)c(F)c(NN)c(F)c2F)c(F)c1F

>  <growth inhibition, %>
87.6

$$$$
>  <compound>
O=C(NCCCNCCCCNCCCNC(=O)c1cc(-c2ccccc2)nc2ccccc12)c1cc(-c2ccccc2)nc2ccccc12

>  <growth inhibition, %>
90.2

$$$$
>  <compound>
Cc1ccc(C2(C)CC/C(=N/O)c3cc(C)c(C)cc32)cc1C (centres undefined)

>  <growth inhibition, %>
90.5

$$$$

Continue with the compound presented below.
Item CC1(C)CCC2(C(=O)O)CCC3(C)C(=CCC4C5(C)CC(O)C(O)C(C)(C(=O)O)C5CCC43C)C2C1 (centres undefined) has what recorded growth inhibition?
91.9

----------
# assay_comment: NCI Yeast Anticancer Drug Screen. Data for the bub3 strain (AID 167)
# measurement_conditions: S. cerevisiae bub3 mutant strain, at 50.0 µM
About 79,000 compounds went through this panel and 15% of them were active in at least one assay; those are over-represented in the sample as a whole. Activity calls are given as the source filed them. Cut-off read from the data, not from the text of the source: active = growth inhibition above about 70%; inactive = the rest.
In this exercise, the only acceptable responses are label 1 for active, label 0 for inactive

Reference set (3 entries):
>  <compound>
O=C(Cc1csc2[n+]1C(=O)/C(=C/c1cccc([N+](=O)[O-])c1)S2)Nc1ccccc1

>  <group_label>
label 0

$$$$
>  <compound>
Cc1ccc(N2C(=O)C(C)SC2=S)cc1Cl (centres undefined)

>  <group_label>
label 0

$$$$
>  <compound>
O=Cc1[nH]c(=S)[nH]c(=O)c1Cc1cccc2ccccc12

>  <group_label>
label 1

$$$$

// param item: C#Cc1cccc(N=Cc2cc(Cl)cc(Cl)c2O)c1 ; yields the recorded call
label 1

----------
# assay_comment: NCI Yeast Anticancer Drug Screen. Data for the rad50 strain (AID 155);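 also: 0% = growth of vehicle-only cultures of the same strain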
# measurement_conditions: S. cerevisiae rad50 strain growth inhibition; at 50.0 µM; stronger effect = higher value
This is part of a sample that, as a whole, favours compounds with a hit. Of some 79,000 tested, about 15% had one in any assay. Active and inactive are the calls of the source. No stated cut-off is given here; in the data, active means growth inhibition above about 70%; inactive means the rest.
readout: growth inhibition

Below are worked cases with known answers.
>  <molecule>
O=[N+]([O-])c1ccc(C=NC2CCCCC2)c([N+](=O)[O-])c1

>  <recorded_value>
41% (inactive)

$$$$
>  <molecule>
C=CCN1CCC(OC(=O)C(O)(C#CC)C2CCCC2)CC1 (stereo unspecified)

>  <recorded_value>
68.9% (inactive)

$$$$
>  <molecule>
Brc1ccc(C2c3ccccc3-c3ccccc32)cc1

>  <recorded_value>
94.5% (active)

$$$$
>  <molecule>
C=C(C)CCC(=C)C

>  <recorded_value>
48.7% (inactive)

$$$$
>  <molecule>
CCC1CN2CCc3cc(OC)c(OC)cc3C2CC1CC1c2cc(OC)c(OC)cc2CCN1C(=O)C(Cc1c[nH]c2ccccc12)NC(=O)OC(C)(C)C (stereo unspecified)

>  <recorded_value>
96.8% (active)

$$$$

What does the record list as growth inhibition for O=C(O)CN(CC(=O)O)C1CCCCC1N1CC(=O)OC(=O)C1 (stereo unspecified) ?
74.3% (active)

# growth inhibition lookup, item Cc1ccc2c(c1)C(O)(c1ccccc1)C(c1ccccc1)C(c1ccccc1)O2 (stereo unspecified)
93.9% (active)

Consider the molecule shown here: CC(=O)Oc1ccccc1C(=O)/C=C/c1ccccc1 What is its recorded growth inhibition?
-11.2% (inactive)

Which growth inhibition is listed for CC(Cl)C(=O)Nc1cc2ccccc2oc1=O (stereo unspecified) ?
10.7% (inactive)

----------
Listed here: items and their measured growth inhibition.
# assay_comment: NCI Yeast Anticancer Drug Screen. Data for the rad50 strain (AID 155);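 also: 0% = growth of vehicle-only cultures of the same strain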
# measurement_conditions: S. cerevisiae rad50 strain growth inhibition; at 50.0 µM (retest, dose inferred, filed as 5.0); stronger effect = higher value
This is part of a sample that, as a whole, favours compounds with a hit. Of some 79,000 tested, about 15% had one in any assay.
Write the answer as a number in %, unit excluded.

Guide cases for growth inhibition, answers given:
>  <compound>
Cc1c(O)ccc(C(=O)CCl)c1O

>  <units_text>
%

>  <growth inhibition>
38

$$$$
>  <compound>
CC(C)(C)C(NO)C(O)N1CCCCC1 (centres undefined)

>  <units_text>
%

>  <growth inhibition>
-141

$$$$
>  <compound>
CSc1cc2c(cc1N)Cc1ccccc1-2

>  <units_text>
%

>  <growth inhibition>
71

$$$$
>  <compound>
O=c1oc(-c2cc([N+](=O)[O-])cc([N+](=O)[O-])c2Cl)nc2ccccc12

>  <units_text>
%

>  <growth inhibition>
50

$$$$
>  <compound>
COc1ccc2c(c1)S(=O)(=O)C(c1ccccc1)=CC2=O

>  <units_text>
%

>  <growth inhibition>
99

$$$$
>  <compound>
CCOC(=O)c1c(NC(=O)CBr)sc(C)c1C

>  <units_text>
%

>  <growth inhibition>
48

$$$$
>  <compound>
CCN(CC)CCC(=O)c1ccc2c3c(n(C)c2c1)CCCC3

>  <units_text>
%

>  <growth inhibition>
9

$$$$
>  <compound>
CC(NC(=O)OC(C)(C)C)C(=O)NC(Cc1ccccc1)C(=O)NCC(=O)Oc1c(Cl)c(Cl)c(Cl)c(Cl)c1Cl (centres undefined)

>  <units_text>
%

>  <growth inhibition>
66

$$$$

What value of growth inhibition has been reported for the following compound? Cc1ccccc1P(=O)(c1ccccc1C)c1ccccc1C
31

----------
# assay_comment: NCI Yeast Anticancer Drug Screen. Data for the cln2 rad14 strain (AID 165);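 also: 0% = growth equal to vehicle treated cultures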
# measurement_conditions: S. cerevisiae cln2 rad14 strain, at 50.0 µM (retest, dose inferred, filed as 5.0), stronger effect = higher value
This is part of a sample that, as a whole, favours compounds with a hit. Of some 79,000 tested, about 15% had one in any assay.
Threshold check on growth inhibition: at or above 40% gives satisfied, strictly below gives not satisfied.

Here's what some known entries look like.
>  <molecule>
CN1C(Cl)=NS(=O)(=O)c2ccccc21

>  <group_label>
not satisfied

$$$$
>  <molecule>
CC(=O)Nc1ccc(Nc2ccc(C(=C3C=CC(=[N+](C)CCC#N)C=C3)c3ccc(N(C)CCC#N)cc3)cc2)cc1

>  <group_label>
satisfied

$$$$
>  <molecule>
Cc1nn(C(=S)S)c(C)c1N=Nc1cccc(F)c1

>  <group_label>
not satisfied

$$$$

Does the reported growth inhibition for CC1N(O)C(c2ccccc2)C(c2ccccc2)=[N+]1[O-] (configuration not stated) fall at or above the 40% mark?
not satisfied

Decide: is the reported value of growth inhibition for CC(C)c1ccc(C(=O)C2CC2)cc1 equal to or greater than 40%?
not satisfied

Could you tell me if the measured growth inhibition of c1ccc2c(c1)N=c1ccccc1=P21c2ccccc2Nc2ccccc21 reaches 40% or more?
satisfied

Has Cc1nc(Cl)c(C#N)c(C)c1[N+](=O)[O-] a recorded growth inhibition greater than or equal to 40%?
satisfied

I'd appreciate it if you could say whether CC(=O)OCC1CC2OC2CC1C (configuration not stated) has growth inhibition at least equal to 40%.
not satisfied

----------
# assay_comment: NCI Yeast Anticancer Drug Screen. Data for the cln2 rad14 strain (AID 165);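 also: 0% = growth equal to vehicle treated cultures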
# measurement_conditions: S. cerevisiae cln2 rad14 strain, at 50.0 µM, stronger effect = higher value
The panel holds about 79,000 compounds, 15% with a hit somewhere; the sample as a whole holds those more often.
readout: growth inhibition (%)
Give the quantity in %, number only.

Before answering, review these 3 worked examples.
>  <compound>
O=C1c2ccccc2C(=O)c2c(/C=C\N3CCCCC3)ccnc21

>  <readout>
growth inhibition

>  <recorded_value>
90.7

$$$$
>  <compound>
C#CC(CC(C)CC(C)(C)C)NC (stereo unspecified)

>  <readout>
growth inhibition

>  <recorded_value>
76

$$$$
>  <compound>
CCC/C(C)=N/NC(=S)SC

>  <readout>
growth inhibition

>  <recorded_value>
77.5

$$$$

Now look at this entry.
Given CCCN(CCC)C(=O)C(C)C , state its recorded growth inhibition.
32.5

----------
# assay_comment: NCI Yeast Anticancer Drug Screen. Data for the mec2-1 strain (AID 157)
# measurement_conditions: S. cerevisiae mec2-1 strain, at 50.0 µM
About 79,000 compounds went through this panel and 15% of them were active in at least one assay; those are over-represented in the sample as a whole. Calls of active or inactive are those of the source. No stated cut-off is given here; in the data, active means growth inhibition above about 70%; inactive means the rest.
Bench note: report the call from Y for active, N for inactive

Worked cases, answers included:
>  <compound>
COC1/C=C\OC2(C)Oc3c(C)c(O)c4c(c3C2=O)C(=O)C=C(NC(=O)C(C)=C/C=C\C(C)C(O)C(C)C2OC(C)(C)OC(C1C)C2C)C4=O (configuration not stated)

>  <group_label>
N

$$$$
>  <compound>
O=C1CCCCO1

>  <group_label>
N

$$$$
>  <compound>
CC(=O)OCC1OC(n2cnc3c(Cl)nc(Cl)nc32)C(OC(C)=O)C1OC(C)=O (configuration not stated)

>  <group_label>
N

$$$$

Tell me the assay call for O=S(=O)(Nc1ccccc1Cl)c1ccccc1 please.
Y

// outcome(item) with item = CCCCC(CCCC)=NNC(=S)SC
N

What call does the record list for CC(=O)Oc1ccccc1C(=O)/C=C/c1ccccc1 ?
N

Please indicate how the test categorized COc1ccc(C(=O)C2OC2c2ccccc2)cc1 (configuration not stated) .
N

Assay outcome for Nc1ccc(C(=O)/C=C/c2ccccc2O)cc1 : what was it?
N

Identify the outcome logged in this assay for the compound shown: CC(C)(C)[Si](C)(C)OCC1OC(n2cnc3c(NC(=O)c4ccccc4)ncnc32)CC1O (configuration not stated)
N

Record request — test call for Nc1ccc2nc3ccccc3nc2c1
Y

Hi team, can someone confirm the assay call for COc1ccc2c(c1)S(=O)(=O)C(c1ccccc1)=CC2=O ?
Y

What did this assay record as the result for Cc1ccc2c(c1)C1(SCC(=O)N1c1ccc(Cl)cc1)C(=O)N2 (configuration not stated) ?
N

What call does the record list for C=C(CN(C)C)C(=O)c1ccccc1[N+](=O)[O-] ?
N

What is the recorded call for this compound in the test? COC(=O)c1ccc(NCc2c(O)ccc(O)c2Br)cc1Cl
Y

Outcome? C=CCOCCC=O
N

What classification did CCN(CC)C(=S)n1c(=S)nc(N(CC)CC)sc1=S end up with in this test?
Y

Given O=C(Nc1cccc(Cl)c1)OCCOC(=O)Nc1cccc(Cl)c1 , state the outcome it received in this test.
Y

Field: outcome | Entry: COc1ccc2nc(NC(=O)Nc3c(Cl)cccc3Cl)sc2c1
Y

I would be grateful if you could indicate the recorded call for NC(=O)C1CCCN1C(=O)C1CCCN(Cc2cc(CN3CCCC(C(=O)N4CCCC4C(N)=O)C3)cc(CN3CCCC(C(=O)N4CCCC4C(N)=O)C3)c2)C1 (configuration not stated) .
N

Hi, sorry to bother you, what did the test record for CCCCCCCCN(CCCCCCCC)CC(O)c1cc(-c2ccc(OC)cc2)nc2cc(Cl)ccc12 (configuration not stated) ?
Y

Outcome? Oc1c(Cl)cc(C(c2cc(Cl)c(O)c(Cl)c2)C(c2cc(Cl)c(O)c(Cl)c2)c2cc(Cl)c(O)c(Cl)c2)cc1Cl
Y

Per the assay record, what outcome was assigned to CC1OC(CC(=O)O)Cc2c1c(O)c1c(O)cc(-c3cc(=O)c4c(=O)c5c(c(=O)c=4c3=O)CC(CC(=O)O)OC5C)c(O)c1c2O (configuration not stated) ?
N
